# targetDesc: hAC8 (Homo sapiens, UniProt P40145)
# Construct: expressed in transfected cells
# Sequence (P40145 whole entry): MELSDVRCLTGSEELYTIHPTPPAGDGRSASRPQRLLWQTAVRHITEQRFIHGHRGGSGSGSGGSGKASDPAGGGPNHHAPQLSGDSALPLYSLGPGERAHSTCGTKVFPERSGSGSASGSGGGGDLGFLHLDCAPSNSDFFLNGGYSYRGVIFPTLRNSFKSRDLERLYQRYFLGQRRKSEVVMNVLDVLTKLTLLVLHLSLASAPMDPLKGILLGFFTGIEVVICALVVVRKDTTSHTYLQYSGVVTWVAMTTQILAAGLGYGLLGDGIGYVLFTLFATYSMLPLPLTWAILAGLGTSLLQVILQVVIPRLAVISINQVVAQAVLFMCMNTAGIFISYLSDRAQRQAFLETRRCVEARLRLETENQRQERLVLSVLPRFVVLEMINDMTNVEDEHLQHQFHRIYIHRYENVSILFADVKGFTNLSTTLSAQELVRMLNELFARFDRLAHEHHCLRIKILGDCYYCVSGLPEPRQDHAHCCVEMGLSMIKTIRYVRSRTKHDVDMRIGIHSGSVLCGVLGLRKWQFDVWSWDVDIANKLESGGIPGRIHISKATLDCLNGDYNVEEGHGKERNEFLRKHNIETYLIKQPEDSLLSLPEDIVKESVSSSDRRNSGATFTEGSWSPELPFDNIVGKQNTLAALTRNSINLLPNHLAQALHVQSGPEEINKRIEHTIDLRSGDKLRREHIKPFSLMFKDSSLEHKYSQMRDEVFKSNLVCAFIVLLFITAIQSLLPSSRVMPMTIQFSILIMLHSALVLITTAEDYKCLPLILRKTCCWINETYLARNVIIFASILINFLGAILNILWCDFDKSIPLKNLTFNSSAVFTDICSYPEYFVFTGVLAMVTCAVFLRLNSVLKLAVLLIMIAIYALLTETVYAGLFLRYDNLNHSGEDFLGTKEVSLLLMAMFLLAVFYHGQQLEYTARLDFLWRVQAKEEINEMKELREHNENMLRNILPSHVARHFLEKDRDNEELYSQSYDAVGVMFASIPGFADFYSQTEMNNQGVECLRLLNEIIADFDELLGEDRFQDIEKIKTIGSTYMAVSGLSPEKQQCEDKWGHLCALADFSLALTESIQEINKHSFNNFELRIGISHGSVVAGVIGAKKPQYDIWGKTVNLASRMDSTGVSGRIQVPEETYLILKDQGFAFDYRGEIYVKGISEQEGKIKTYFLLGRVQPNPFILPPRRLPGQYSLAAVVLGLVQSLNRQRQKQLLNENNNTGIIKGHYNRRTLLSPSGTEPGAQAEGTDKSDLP
# assaySummary: Cyclic AMP accumulation in HEK cells stably expressing AC8, stimulated with A23187 (HTRF)
# Assay type: cell-based
# assayContext: HEK293; HEK-AC8 cells, 30 μM
Would you please tag the item Met when its inhibition at 30 µM is 70% or above, and Not met when it is below?

As a guide, the following entries are already answered.
Cc1ccc(C(=O)Nc2nnc(-c3ccc4c(c3)CCCC4)o2)cc1C(F)(F)F    Not met
Cc1ccc(C(=O)Nc2nnc(-c3ccc(F)cc3)o2)cc1    Not met
O=C(Nc1nnc(-c2ccc3c(c2)CCCC3)o1)c1ccccc1    Met
Cc1ccc(C(=O)Nc2nnc(-c3ccc(F)cc3)o2)cc1C(F)(F)F    Met
O=C(Nc1nnc(-c2ccc(F)cc2)o1)c1ccccc1F    Not met

Req: Exam item: decide whether the reported inhibition at 30 µM for `O=C(Nc1nnc(-c2ccc3c(c2)OCCO3)o1)c1cccc(C(F)(F)F)c1` is at least 70%.
Resp: Not met

Req: And what about the compound `O=C(Nc1nnc(-c2ccc3c(c2)CCCC3)o1)c1ccc(Br)cc1` ?
Resp: Not met

Req: And what about the compound `Cc1ccc(C(=O)Nc2nnc(-c3ccc(F)cc3)o2)cc1C` ?
Resp: Not met

Req: And what about the compound `O=C(Nc1nnc(-c2ccc(F)cc2)o1)c1cccc(-c2ccccc2)c1` ?
Resp: Met

Req: And what about the compound `Cc1ccc(C(=O)Nc2nnc(C3CCCCC3)o2)cc1C` ?
Resp: Not met

Req: And what about the compound `COc1cccc(C(=O)Nc2nnc(-c3ccc4c(c3)CCCC4)o2)c1` ?
Resp: Not met

Req: And what about the compound `O=C(Nc1nnc(-c2ccc(F)cc2)o1)c1ccc(S(=O)(=O)N2CCCCC2)cc1` ?
Resp: Not met

Req: And what about the compound `Cc1cc(C(=O)Nc2nnc(C3CCCCC3)o2)cc(C(F)(F)F)c1` ?
Resp: Met

Req: And what about the compound `O=C(Nc1nnc(-c2ccc(F)cc2)o1)c1ccccc1` ?
Resp: Not met

Req: And what about the compound `Cc1ccc(C(=O)Nc2nnc(-c3ccc4c(c3)OCCO4)o2)cc1C` ?
Resp: Not met

Req: And what about the compound `O=C(Nc1nnc(-c2ccc3c(c2)CCCC3)o1)c1ccc(F)cc1` ?
Resp: Met

Req: And what about the compound `O=C(Nc1nnc(-c2ccc(F)cc2)o1)c1cccc(C(F)(F)F)c1` ?
Resp: Not met

Req: And what about the compound `O=C(Nc1nnc(-c2ccc(F)cc2)o1)c1cccc(F)c1` ?
Resp: Not met

Req: And what about the compound `O=C(Nc1nnc(C2CCCCC2)o1)c1cccc(-c2ccccc2)c1` ?
Resp: Met

====

# targetDesc: hAC1 (Homo sapiens, UniProt Q08828)
# Construct: expressed in transfected cells
# Sequence (Q08828 whole entry): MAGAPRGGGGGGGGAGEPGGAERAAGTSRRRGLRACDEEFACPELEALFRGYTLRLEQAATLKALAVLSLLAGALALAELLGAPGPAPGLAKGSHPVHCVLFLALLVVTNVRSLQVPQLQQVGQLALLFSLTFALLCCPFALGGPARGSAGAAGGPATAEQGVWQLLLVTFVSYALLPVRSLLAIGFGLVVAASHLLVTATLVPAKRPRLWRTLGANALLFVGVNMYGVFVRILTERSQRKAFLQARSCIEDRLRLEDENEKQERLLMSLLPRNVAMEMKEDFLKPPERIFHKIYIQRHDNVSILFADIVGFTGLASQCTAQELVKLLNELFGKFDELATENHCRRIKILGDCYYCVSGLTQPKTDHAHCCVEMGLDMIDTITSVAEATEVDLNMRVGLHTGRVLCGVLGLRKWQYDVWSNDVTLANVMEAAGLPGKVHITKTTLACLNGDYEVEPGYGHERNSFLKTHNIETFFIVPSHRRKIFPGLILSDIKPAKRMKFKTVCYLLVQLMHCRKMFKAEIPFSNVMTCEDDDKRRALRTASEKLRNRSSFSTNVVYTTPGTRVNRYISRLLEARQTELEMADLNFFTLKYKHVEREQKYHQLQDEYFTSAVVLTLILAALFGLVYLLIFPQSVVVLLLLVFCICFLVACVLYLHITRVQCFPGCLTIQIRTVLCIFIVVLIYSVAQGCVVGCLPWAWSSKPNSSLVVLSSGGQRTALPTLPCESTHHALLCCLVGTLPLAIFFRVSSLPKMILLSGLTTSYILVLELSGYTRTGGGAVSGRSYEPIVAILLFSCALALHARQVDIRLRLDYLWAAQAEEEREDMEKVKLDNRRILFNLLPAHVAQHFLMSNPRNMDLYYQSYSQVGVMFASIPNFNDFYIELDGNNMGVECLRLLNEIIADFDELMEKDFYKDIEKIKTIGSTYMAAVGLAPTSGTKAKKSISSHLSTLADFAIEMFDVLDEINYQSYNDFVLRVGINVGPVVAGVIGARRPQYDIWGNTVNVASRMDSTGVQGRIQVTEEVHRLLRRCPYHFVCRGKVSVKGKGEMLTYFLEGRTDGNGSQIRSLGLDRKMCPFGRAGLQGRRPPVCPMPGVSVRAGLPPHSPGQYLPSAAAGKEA
# assaySummary: Cyclic AMP accumulation in HEK cells stably expressing AC1, stimulated with A23187 (HTRF)
# Format: cell-based
# assayContext: HEK-AC1 cells; read-out: HEK-AC1 IC50
measuredMetric: log10 of IC50 (log10 of the value in µM)
Please interpret these as log10 of IC50 where IC50 is in µM.

Use the examples below as a reference point.
COc1cc(C(=O)Nc2nnc(-c3ccc(F)cc3)o2)cc(C(F)(F)F)c1 [AC10068]    0.70
O=C(Nc1nnc(C2CCCCC2)o1)c1ccc(Br)cc1 [AC10007]    0.93

Req: What log10 of IC50 value was documented for this molecule, O=C(Nc1nnc(-c2ccc(F)cc2)o1)c1ccc(Br)cc1 [AC10008] ?
Resp: 1.00

Req: And what about the molecule Cc1cc(C(=O)Nc2nnc(-c3ccc(F)cc3)o2)cc(C(F)(F)F)c1 [AC10065] ?
Resp: 0.15

Req: And what about the molecule O=C(Nc1nnc(-c2ccc(F)cc2)o1)c1ccc(F)cc1 [AC10052] ?
Resp: 1.23

Req: And what about the molecule Cc1ccc(C(=O)Nc2nnc(-c3ccc4c(c3)OCCO4)o2)cc1C [AC10035] ?
Resp: 0.72

Req: And what about the molecule O=C(Nc1nnc(C2CCCCC2)o1)c1ccccc1 [AC10003] ?
Resp: 1.39

Req: And what about the molecule CC(C)Oc1ccc(C(=O)Nc2nnc(-c3cccs3)o2)cc1 [AC10017] ?
Resp: 1.03

====

# targetDesc: hAC8 (Homo sapiens, UniProt P40145)
# Construct: expressed in transfected cells
# assaySummary: Cyclic AMP accumulation in HEK cells stably expressing AC8, stimulated with A23187 (HTRF)
# Assay type: cell-based
# assayContext: stable HEK cell line, A23187-stimulated cAMP accumulation, n ≥ 3; read-out: hAC8 IC50
Measured pIC50 accompanies every entry in the list below.
// pIC50 here means minus log10 of the molar concentration (mol/L)

Req: Param readout= pIC50; system= hAC8 (Homo sapiens, UniProt P40145); entry= `O=C(Nc1nnc(-c2ccc3c(c2)CCCC3)o1)c1ccccc1` ; returns value.
Resp: 4.68

Req: And what about the compound CC1CC(C)CN(S(=O)(=O)c2ccc(C(=O)Nc3nnc(-c4cccs4)o3)cc2)C1 (stereo not drawn) ?
Resp: 4.77

Req: And what about the compound `O=C(Nc1nnc(-c2ccc3c(c2)OCCO3)o1)c1ccc(Br)cc1` ?
Resp: 4.74

====

# targetDesc: hAC2 (Homo sapiens)
# Construct: expressed in transfected cells
# Sequence (Q08462 whole entry): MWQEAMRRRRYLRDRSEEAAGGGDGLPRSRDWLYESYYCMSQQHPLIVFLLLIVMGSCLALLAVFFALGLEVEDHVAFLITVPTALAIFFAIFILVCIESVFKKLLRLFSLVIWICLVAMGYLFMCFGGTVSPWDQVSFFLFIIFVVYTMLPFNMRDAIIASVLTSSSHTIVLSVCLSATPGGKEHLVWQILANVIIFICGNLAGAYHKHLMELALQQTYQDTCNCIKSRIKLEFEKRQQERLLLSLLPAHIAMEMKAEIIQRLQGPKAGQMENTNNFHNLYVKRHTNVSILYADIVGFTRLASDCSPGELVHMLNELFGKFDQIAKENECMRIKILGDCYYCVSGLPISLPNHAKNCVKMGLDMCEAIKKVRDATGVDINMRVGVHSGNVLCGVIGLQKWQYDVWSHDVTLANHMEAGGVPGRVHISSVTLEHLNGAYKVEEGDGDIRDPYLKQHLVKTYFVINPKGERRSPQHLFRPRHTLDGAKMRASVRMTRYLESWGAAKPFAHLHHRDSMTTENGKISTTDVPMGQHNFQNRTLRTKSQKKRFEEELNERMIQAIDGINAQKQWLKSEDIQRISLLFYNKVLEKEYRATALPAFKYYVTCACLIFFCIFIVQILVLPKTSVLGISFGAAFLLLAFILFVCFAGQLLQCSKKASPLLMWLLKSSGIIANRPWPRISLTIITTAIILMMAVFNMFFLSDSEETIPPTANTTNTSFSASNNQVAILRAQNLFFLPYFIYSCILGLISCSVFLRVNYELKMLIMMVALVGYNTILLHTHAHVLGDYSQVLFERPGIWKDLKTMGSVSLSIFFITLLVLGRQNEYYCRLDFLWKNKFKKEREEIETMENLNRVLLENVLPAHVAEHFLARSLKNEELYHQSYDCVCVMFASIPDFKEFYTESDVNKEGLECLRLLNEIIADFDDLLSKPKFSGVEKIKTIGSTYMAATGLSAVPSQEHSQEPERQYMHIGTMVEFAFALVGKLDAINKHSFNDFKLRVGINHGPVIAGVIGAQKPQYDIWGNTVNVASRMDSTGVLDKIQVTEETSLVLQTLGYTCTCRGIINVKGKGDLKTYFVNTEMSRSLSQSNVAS
# assaySummary: Cyclic AMP accumulation in stable HEK-AC2 cells, stimulated with 100 nM PMA
# Type: cell-based
# assayContext: % inhibition at 30 μM, 100 nM PMA-stimulated, negative = potentiated response, n = 2
measuredMetric: hAC2 % Inhib. (%)
Provide the reading as a plain figure in %.

Use the examples below as a reference point.
CCc1c(C)nc(-n2nc(C)cc2NC(=O)c2ccco2)[nH]c1=O    32
O=C(Nc1nnc(-c2ccc3c(c2)CCCC3)o1)c1ccccc1    -95
CSc1ccccc1C(=O)Nc1cc(C)nn1-c1nc2c(c(=O)[nH]1)CCC2    −185

Req: What hAC2 % Inhib. value was documented for this molecule, `CCc1cc(=O)[nH]c(-n2nc(C)cc2NC(=O)c2ccccc2F)n1` ?
Resp: −70

Req: And what about the molecule `CSc1cccc(C(=O)Nc2nnc(C3CCCCC3)o2)c1` ?
Resp: −210

Req: And what about the molecule CC1CC(C)CN(S(=O)(=O)c2ccc(C(=O)Nc3nnc(-c4cccs4)o3)cc2)C1 (stereo not shown) ?
Resp: −6

Req: And what about the molecule `O=C(Nc1nnc(-c2ccc3c(c2)OCCO3)o1)c1ccc(Br)cc1` ?
Resp: -7

====

Measured inhibition at 30 µM accompanies every entry in the list below.
# targetDesc: hAC8 (Homo sapiens, UniProt P40145)
# Construct: expressed in transfected cells
# assaySummary: Cyclic AMP accumulation in HEK cells stably expressing AC8, stimulated with A23187 (HTRF)
# Format: cell-based
# assayContext: HEK293; HEK-AC8 cells, 30 μM
Provide the reading as a plain figure in %.

Use the examples below as a reference point.
COc1ccc(C(=O)Nc2nnc(-c3ccc4c(c3)CCCC4)o2)cc1    34
Cc1ccc(C(=O)Nc2nnc(C3CCCCC3)o2)cc1C(F)(F)F    83
O=C(Nc1nnc(-c2ccc(F)cc2)o1)c1ccc(Cl)cc1    11
O=C(Nc1nnc(-c2ccc3c(c2)OCCO3)o1)c1ccccc1    24
COc1ccc(C(=O)Nc2nnc(-c3ccc(F)cc3)o2)cc1    20

Req: What inhibition at 30 µM value was documented for this compound, `CCc1ccc(C(=O)Nc2nnc(-c3ccc4c(c3)CCCC4)o2)cc1` ?
Resp: 88

Req: And what about the compound `O=C(Nc1nnc(-c2ccc(F)cc2)o1)c1ccc(F)cc1` ?
Resp: 14

Req: And what about the compound `COc1cc(C(=O)Nc2nnc(-c3ccc(F)cc3)o2)cc(C(F)(F)F)c1` ?
Resp: 80

Req: And what about the compound `O=C(Nc1nnc(C2CCCCC2)o1)c1ccc(F)cc1` ?
Resp: 7

Req: And what about the compound `Cc1cc(C(=O)Nc2nnc(-c3ccc(F)cc3)o2)cc(C(F)(F)F)c1` ?
Resp: 89

====

# targetDesc: hAC1 (Homo sapiens, UniProt Q08828)
# Construct: expressed in transfected cells
# assaySummary: Cyclic AMP accumulation in HEK cells stably expressing AC1, stimulated with A23187 (HTRF)
# Format: cell-based
# assayContext: HEK-AC1 cells; read-out: HEK-AC1 IC50
measuredMetric: IC50

Use the examples below as a reference point.
CC(C)Oc1ccc(C(=O)Nc2nnc(-c3ccc4c(c3)OCCO4)o2)cc1    7.5 µM
O=C(Nc1nnc(C2CCCCC2)o1)c1cccc(-c2ccccc2)c1    1.4 µM
COc1cc(C(=O)Nc2nnc(-c3ccc4c(c3)CCCC4)o2)cc(C(F)(F)F)c1    9.4 µM
CCc1ccc(C(=O)Nc2nnc(-c3ccc(F)cc3)o2)cc1    8.2 µM
O=C(Nc1nnc(-c2ccc3c(c2)CCCC3)o1)c1ccc(Br)cc1    12.2 µM

Req: Param readout= IC50; system= hAC1 (Homo sapiens, UniProt Q08828); entry= `O=C(Nc1nnc(-c2ccc(F)cc2)o1)c1cccc(-c2ccccc2)c1` ; returns value.
Resp: 2.3 µM

Req: And what about the molecule `O=C(Nc1nnc(-c2ccc3c(c2)OCCO3)o1)c1cccc(C(F)(F)F)c1` ?
Resp: 5.1 µM

Req: And what about the molecule `CSc1cccc(C(=O)Nc2nnc(-c3ccc4c(c3)CCCC4)o2)c1` ?
Resp: 1.7 µM

Req: And what about the molecule `CC(C)Oc1ccc(C(=O)Nc2nnc(-c3ccc4c(c3)CCCC4)o2)cc1` ?
Resp: 9.9 µM

Numbers sourced from patent US20200031785A1.
